Where do these numbers come from? They come from PubChem BioAssay (NCI).

Tested on: RPMI-8226 leukemia
Experiment: NCI-60 one-dose screen, 48 h (100 = growth as untreated, 0 = no growth, -100 = all killed)
Details: 10 µM unless noted
Procedure: Growth inhibition of the RPMI-8226 human tumor cell line is measured as a screen for anti-cancer activity. Cells are grown in 96 well plates and exposed to the test compound for 48 hours. Compounds are tested at a single concentration, which is 10^-5 M for most compounds. The reported endpoint is percent growth (GI% or GIPRCNT), where numbers from 0 - 100% represent growth inhibition, and numbers from -100% - 0 represent cell death. For example, a value of 40 represents 60% growth inhibition. […]
About 83,000 compounds went through this panel and 20% of them were active in at least one assay; those are over-represented in the sample as a whole.
measured.property: growth (%)
The reply should be a number in %, with the unit left off.

query: Give recorded growth with RPMI-8226 leukemia for the following compound: Nc1nc2c(c3ncncc13)C(c1cccc(C(F)(F)F)c1)Cc1ncncc1-2 (centres undefined)
result: 26.8

query: What about CC1=C(C)C[C@]2(C(=O)O[C@H]3CCCC[C@@H]32)[S@](=O)C1 ?
result: 111

query: Try this compound too: COc1cc(Cn2ccc3c2-c2oncc2CC3)cc(OC)c1
result: 35.2

query: Thanks! And Cc1ccnc2c(NC(C)CCCN)cc(O)c(O)c12 (centres undefined) ?
result: 95.2

query: Same thing, different compound: CN1CCN(Cc2ccc(NC(=O)c3ccc(C#Cc4c(N)ncc5ccc(F)cc45)cc3)cc2C(F)(F)F)CC1
result: -43.3

Further cases:
query: Any idea what growth came out for Cc1cc2c(-c3nc4ccccc4n3C)c(O)c(O)cc2c(O)c1-c1c(C)cc2c(-c3nc4ccccc4n3C)c(O)c(O)cc2c1O on RPMI-8226 leukemia?
result: 24.4

query: Also need C#CCCCCCCC[C@@H]1OC(=O)[C@H]([C@@H](C)CC)NC(=O)[C@@H]([C@@H](C)CC)NC(=O)CC(=O)[C@@H]1C , thanks.
result: 93.8

query: Check N=C(c1ccccc1)N(Cc1ccccc1)Cc1ccccc1 too.
result: 94.4

query: Follow-up item: C=CC1CN2CCC1CC2C(O)c1ccnc2ccc(OC)cc12 (centres undefined)
result: 108

----------
System: MOLT-4 leukemia
Assay: NCI-60 one-dose screen, 48 h
Conditions: 10 µM unless noted
Description: Growth inhibition of the MOLT-4 human tumor cell line is measured as a screen for anti-cancer activity. Cells are grown in 96 well plates and exposed to the test compound for 48 hours. Compounds are tested at a single concentration, which is 10^-5 M for most compounds. The reported endpoint is percent growth (GI% or GIPRCNT), where numbers from 0 - 100% represent growth inhibition, and numbers from -100% - 0 represent cell death. For example, a value of 40 represents 60% growth inhibition. […]
Compounds without any hit were thinned out: in the full panel of roughly 83,000, 20% have a hit. Activity calls are given as the source filed them. The calls were made as follows: active = growth percent below 10; inactive = the rest.
// one of active, inactive, no free text

query: What did the test return for Nc1ncn([C@@H]2O[C@H](CO)[C@@H](O)C2(F)F)c(=O)n1 ?
result: inactive

query: Record: CCOC(=O)c1c2c(cn1Cc1ccccc1)-c1oncc1CC2
result: inactive

query: Same again, this time with C=C(NC(=O)[C@H](C(C)C)N(C)c1cccc2[nH]ccc12)C(=O)OC
result: inactive

***
query: Dear all, I need the recorded test outcome for COc1cc(-c2c3c(cn2CCN2CCCCC2)-c2oncc2CC3)cc(OC)c1OC , thank you.
result: inactive

query: Another compound to check: CCCCN(CCCC)c1ccc(C(=O)O)cc1
result: inactive

query: Now consider CC[n+]1c(C)ccc2cc(C)ccc21 .
result: inactive

query: What would you report for Oc1ccccc1\C=N/N=C/C=C/c1ccccc1 ?
result: inactive

query: Note, next up: COC1NC(Cl)=C(C#N)C(C#N)(C#N)C1(C)C (configuration not stated)
result: inactive

query: Okay, and O=C(Nc1ccc(Cl)cn1)C1(c2ccccc2)CCCCC1 ?
result: inactive

query: Now the same for COc1ccc(/C(=C(\c2ccccc2)[N+](=O)[O-])c2ccc(OCCN3CCCC3)cc2)cc1
result: inactive

query: Another compound to look at: CC[N+](C)(C)N
result: inactive

query: Another compound to look at: O=C(CBr)OCc1ccc([N+](=O)[O-])o1
result: inactive
